Numbers sourced from patent US20160095845A1.

# experiment notes: Acute toxicity experiment of oral administration on rats
# assay context: SD, in vivo, 1000 mg/kg; rat, oral; read-out: minimum lethal oral dose (LD50)
readout label: highest tested oral dose (no deaths) (mg/kg)

1. C[C@@H](COc1ccccc1Cc1ccccc1)N1CCCCC1 [(S)-(−)-benproperine]    1000
